Study Target: T1, Sgf29 D266F variant, residues 115-293 (human, UniProt Q96ES7 115-293, D266F)
T1 construct: source: E. coli Rosetta BL21 DE3 PlysS, purified (Ni-NTA, TEV cleavage, SEC Superdex 75)
T1 sequence (looked up): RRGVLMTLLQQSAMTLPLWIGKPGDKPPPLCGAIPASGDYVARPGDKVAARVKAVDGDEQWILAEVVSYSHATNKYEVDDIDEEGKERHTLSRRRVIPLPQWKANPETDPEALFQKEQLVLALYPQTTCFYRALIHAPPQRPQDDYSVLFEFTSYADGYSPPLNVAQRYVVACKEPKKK
Test Description: ITC; peptide (generally 1.2 mM) titrated to protein (100 uM); for variants of low affinity 2.4 mM peptide to 200 uM protein; 25 mM TRIS pH 8.0, 50 mM NaCl, 1 mM DTT; one-site model
Measurement Setup: both partners purified
No end group written: not given here. Me3 = trimethyl (on lysine, trimethyllysine)
Quantity Name: pKd
Answers are plain numbers, as −log10 of the molar value.

// returns reported pKd for input ARTK(Me3)QTARKS-OH (histone H3 N-terminal tail, 10-mer, K4 trimethylated; also called native 10-mer peptide; source: synthetic peptide (manual Fmoc solid-phase synthesis, preparative HPLC)) [10-mer histone 3 peptide H3K4me3 (ARTKme3QTARKS)]
4.36
